Tested on: EKVX
procedure summary: NCI tumour cell line growth inhibition, 48 h
The source made the active and inactive calls. Cut-off read from the data, not from the text of the source: active = GI50 up to about 1.1 µM and inactive = higher.
Bench note: report the call from Y (active), N (inactive)

Any idea what this test logged for `CCCC(=O)Nc1cc(C(=O)N2C[C@H]3C[C@@]34C2=CC(=O)c2[nH]cc(C)c24)n(COC)c1` ?
Y

Any idea what this test logged for `Cc1cccc2c1c1ccc3c(c1n2C)C(=O)C=CC3=O` ?
N

Lab note: next compound to report on.
Any idea what this test logged for `Clc1nc(Cl)c(CBr)c(Cl)n1` ?
N

* * *

Test system: SK-MEL-2
procedure summary: NCI tumour cell line growth inhibition, 48 h
Activity calls are given as the source filed them. Cut-off read from the data, not from the text of the source: active = GI50 up to about 1.1 µM and inactive = higher.
Listing of entries alongside the reported GI50.

Report GI50 for `CCN1C/C(=C\c2ccc(Cl)cc2)c2[nH]c(=O)c(C#N)c(-c3ccc(Cl)cc3)c2C1`
> 100 µM (inactive)

Report GI50 for O=C(O)CCC(NC(=O)c1ccc(Nc2cnc3cc(C(F)(F)F)ccc3n2)cc1)C(=O)O (centres undefined)
> 100 µM (inactive)

Report GI50 for `N#Cc1c2c(c(Cl)n3c1nc1ccccc13)CCCC2`
2.8 µM (inactive)

Next:
Report GI50 for `NNC(=O)c1nnn(N)c1S`
> 100 µM (inactive)

Report GI50 for `CCOC(=O)c1c(N2CCOCC2)[nH]c(=O)c(C(c2c(Cl)cccc2Cl)c2c(O)c(C(=O)OCC)c(N3CCOCC3)[nH]c2=O)c1O`
4.74 µM (inactive)

Report GI50 for `O=C1NC(=N/c2ccccc2)/C(=N\c2ccccc2)N1c1ccccc1`
15.1 µM (inactive)

* * *

Tested on: NCI-H226
procedure summary: NCI tumour cell line growth inhibition, 48 h
The source made the active and inactive calls. Cut-off read from the data, not from the text of the source: active = GI50 up to about 1.1 µM and inactive = higher.
Bench note: report the call from active, inactive

Field: example entries. Status: answers known.
Any idea what this test logged for `COc1cc(/C=C(\C#N)C(N)=O)cc(Br)c1O` ?
inactive

Any idea what this test logged for COc1ccc(CN2C(=O)C(Cc3cc(OC)c(OC)c(C)c3OC)NC(=O)/C2=C/c2cc(OC)c(OC)c(C)c2OC)cc1 (configuration not stated) ?
inactive

Any idea what this test logged for `CN1C(=N\S(=O)(=O)c2ccc(Cl)cc2)/C(=N/N=P(c2ccccc2)(c2ccccc2)c2ccccc2)c2ccccc21` ?
inactive

Any idea what this test logged for `COc1ccc2c(c1)C(N)=C(c1ccccc1)C2=O` ?
inactive

Any idea what this test logged for CCC1(C)N=c2c(ncn2N=C(C)C)=C(C(N)=O)N1 (configuration not stated) ?
inactive

Next:
Any idea what this test logged for COc1cc([C@@H]2c3cc4c(cc3[C@H](OC3OC5COC(C(C)C)OC5C(O)C3O)C3COC(=O)[C@@H]32)OCO4)cc(OC)c1OC (some centres not stated) ?
inactive

Any idea what this test logged for CC12CCC3C(CCC4(O)C=CCCC34C=O)C1(O)CC(O)C2c1ccc(=O)oc1 (configuration not stated) ?
active

* * *

Tested on: NCI-H522
procedure summary: NCI tumour cell line growth inhibition, 48 h
Active and inactive are the calls of the source. No stated cut-off is given here; in the data, active = GI50 up to about 1.1 µM and inactive = higher.
Bench note: report the call from active, inactive

Any idea what this test logged for COC(=O)[C@]1(C)CCCC2(C)C1CC[C@H]1C=C(C)[C@H]3CCC12C3 (stereo not given in full) ?
inactive

Any idea what this test logged for CCOC1Oc2ccccc2-c2nc(N)ncc21 (stereo not given) ?
inactive

Any idea what this test logged for `CN1CCN([C@H]2C[C@H]3[C@@H]4CC=C5C[C@@H](O)CC[C@]5(C)[C@H]4CC[C@]3(C)[C@H]2O)CC1` ?
inactive

Any idea what this test logged for `CCOc1ccccc1NC(=O)C1=C(C)NC(C)=C(C(=O)Nc2ccccc2OCC)C1c1ccc2c(c1)OCO2` ?
inactive

Any idea what this test logged for CC(=O)C(CN(C(C)C)C(C)C)C(c1ccccc1)c1c(O)c2ccccc2oc1=O (stereo not given) ?
inactive

Next:
Any idea what this test logged for CC(C)=CCc1c(O)ccc2c1OC1c3ccc(O)c(CC=C(C)C)c3OCC21 (stereo not given) ?
inactive

Any idea what this test logged for `O=C(N/C(=C\c1ccccc1)c1nc2ccccc2c(=O)o1)c1ccccc1` ?
inactive

Any idea what this test logged for `[O-]c1c[n+](CC[n+]2cc([O-])on2)no1` ?
inactive

Any idea what this test logged for `CC(=O)c1ccc(NC(=O)/C(CC(=O)c2sc(-c3cccnc3)nc2C)=N/NC(N)=O)cc1` ?
inactive

Any idea what this test logged for CC(=O)CCC1(C(=O)OCC(C)C)CCCC1=O (stereo not given) ?
inactive

Any idea what this test logged for `CC1(C)C=C(N2CCN(C3=CC(C)(C)NC(C)(C)C3)CC2)CC(C)(C)N1` ?
inactive

Any idea what this test logged for NCCC(=O)N[C@H](Cc1cc(O)c(O)c(SCC(NC(=O)CC[C@H](N)C(=O)O)C(=O)NCC(=O)O)c1)C(=O)O (stereo not given in full) ?
inactive

Any idea what this test logged for `O=C1C=Cc2cscc21` ?
inactive

Any idea what this test logged for `CCc1cccc(=O)c([O-])c1.CCc1cccc(=O)c([O-])c1.[Bi+3].[Cl-]` ?
inactive

Any idea what this test logged for `N#Cc1c(-c2ccccc2)cc(Nc2cccc(C(F)(F)F)c2)n2c1nc1ccccc12` ?
active
